The measurements presented in this section are drawn from patent US20250051375A1.

system: HIV-1 IIIB strain; assay: MT-4 HIV Wild Type Virus Infection Assay (IIIB Virus); type: cell-based; conditions: Human immunodeficiency virus 1, IIIB, MT4, 120 h, MT-4 cells acutely infected with HIV-1 IIIB, 5 day incubation, Cell-titer glo
pEC50: −log10 of the molar value.
Entry flag: 1 (yes) if pEC50 reaches 7; 0 (no) if it does not.

Compound	Cat
COC(=O)N[C@H](C(=O)N[C@@H](Cc1ccc(C#Cc2cnc(N3CC4CCC(C3)N4C3COC3)nc2)cc1)[C@H](CN(Cc1c(F)cc(-c2ccn(C(F)F)n2)cc1F)NC(=O)[C@@H](NC(=O)OC)C(C)(C)C(F)(F)F)OC(=O)CC(C)(C)c1c(CC(=O)NC23CC(C(=O)O)(C2)C3)cc(C)cc1OP(=O)(O)O)C(C)(C)C(F)(F)F [Example 38]	0 (no)

Exercise: Could you please find out whether COC(=O)N[C@H](C(=O)N[C@@H](Cc1ccc(C#Cc2cnc(N3CC4CCC(C3)N4C3COC3)nc2)cc1)[C@H](CN(Cc1c(F)cc(-c2ccn(C(F)F)n2)cc1F)NC(=O)[C@@H](NC(=O)OC)C(C)(C)C(F)(F)F)OC(=O)CC(C)(C)c1c(CC(=O)N(C)[C@@H](C)C(=O)O)cc(C)cc1OP(=O)(O)O)C(C)(C)C(F)(F)F [Example 97] has pEC50 that meets 7 or exceeds it?
Solution: 0 (no)
